Kindly supply the reported self-splicing fitness (ln) values for the records listed here.
method.notes: self-splicing fitness, log relative to wild type (ln ratio); higher = more splicing; Tetrahymena group I intron in knt gene, E. coli kanamycin selection, DiMSum; sequences stand for … in CUCUCU…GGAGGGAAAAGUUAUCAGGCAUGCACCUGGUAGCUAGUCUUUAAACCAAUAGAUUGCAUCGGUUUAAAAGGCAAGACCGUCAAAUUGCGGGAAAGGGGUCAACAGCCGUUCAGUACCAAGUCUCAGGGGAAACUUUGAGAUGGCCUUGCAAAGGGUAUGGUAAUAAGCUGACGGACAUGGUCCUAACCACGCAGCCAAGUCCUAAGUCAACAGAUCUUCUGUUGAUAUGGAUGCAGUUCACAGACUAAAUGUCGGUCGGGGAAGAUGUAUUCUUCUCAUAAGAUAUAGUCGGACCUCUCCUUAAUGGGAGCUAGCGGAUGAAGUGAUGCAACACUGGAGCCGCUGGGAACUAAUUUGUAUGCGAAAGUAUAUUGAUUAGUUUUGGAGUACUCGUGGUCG;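 further: selection with 25 µg/mL kanamycin versus none on LB agar overnight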
condition.label: 37 °C

Data request: Which measured self-splicing fitness (ln) value corresponds to CGGCAGCAAUAUUACGUCAC ?
Data returned: -2.81

Data request: Another: GUAGAGCAAUAUUACGAACG
Data returned: -1.38

Data request: Query CCCCAGCAAUAUUACGGGUC next
Data returned: -2.43

Data request: Then CUACAGCAAUAUUACGAGGA ?
Data returned: -3.21

Data request: Note, next up: GUAAAGCAAUAUUACGAUGG
Data returned: -0.952

Data request: Again, but for UGUUAGCAAUAUUACGUAAA
Data returned: 0.19

Data request: Ok, now AAGGAGCAAUAUUACGCGUG
Data returned: -2.1

Data request: Repeat with AUGGAGCAAUAUUACGCACC
Data returned: -1.26

Data request: And then CGAUAGCAAUAUUACGUCUU , what is it?
Data returned: -0.12

Data request: Now try UGCAAGCAAUAUUACGACGA .
Data returned: 0.648

Data request: Would you mind doing UACUAGCAAUAUUACGGUCU as well?
Data returned: -0.2

Data request: Item: UCUGAGCAAUAUUACGGGGC
Data returned: -2.7

Data request: Now try CUCCAGCAAUAUUACGCGCC .
Data returned: -2.05

Data request: Follow-up item: CCUUAGCAAUAUUACGGUAG
Data returned: -2.1

Data request: What would you report for UAGCAGCAAUAUUACGAAGU ?
Data returned: -1.59

Data request: Moving on to the next sequence: UUAAAGCAAUAUUACGGGGG
Data returned: -2.16

Data request: Check UCUGAGCAAUAUUACGCUAG too.
Data returned: -1.43

Data request: What do you have for AUUCAGCAAUAUUACGUCAG ?
Data returned: -1.67

Data request: Same thing, different sequence: GCCUAGCAAUAUUACGGCUA
Data returned: -2.49

Data request: Same question for AGACAGCAAUAUUACGCGUA please.
Data returned: -0.867

Data request: Entry CUCUAGCAAUAUUACGCAAC please
Data returned: -3.59

Data request: Query UAGUAGCAAUAUUACGUGAC next
Data returned: -2.47

Data request: What do we get for UAUCAGCAAUAUUACGUGUC ?
Data returned: -1.79

Data request: Cool, now ACGCAGCAAUAUUACGCUCU
Data returned: 0.303

Data request: Can you handle CCUGAGCAAUAUUACGACCG next?
Data returned: -2.5

Data request: What would you report for GACUAGCAAUAUUACGCGUU ?
Data returned: -3.83

Data request: // repeat for CACGAGCAAUAUUACGGCGU and report
Data returned: -2.53

Data request: Next record, please: UUUGAGCAAUAUUACGAUAA
Data returned: -0.386

Data request: What about GGUCAGCAAUAUUACGGAUA ?
Data returned: 0.248

Data request: Item: GUCCAGCAAUAUUACGACAU
Data returned: 0.0313

Data request: For UCUUAGCAAUAUUACGACUG then?
Data returned: -1.69

Data request: Same lookup for AUCAAGCAAUAUUACGUCGA , please.
Data returned: -0.157

Data request: Now consider UUGGAGCAAUAUUACGAGCA .
Data returned: -1.74

Data request: Let us now turn to UGAAAGCAAUAUUACGUAGU
Data returned: -2.16

Data request: Thanks! And GAAGAGCAAUAUUACGCGCG ?
Data returned: -1.36

Data request: Same thing, different sequence: CAUGAGCAAUAUUACGUGGC
Data returned: -2.46
